src = paper PMC6858373

Target: FGF14:Nav1.6 C-tail complex (Homo sapiens, UniProt Q92915+Q9UQD0)
Construct: polymerase chain reaction (PCR) amplification of the FGF14 open reading frame (nt 1–855); C-terminal fragment of Nav1.6 (amino acids 1763–1976) fused with CD4ΔC-tail (amino acids 1–395); expressed in transfected cells
Sequence (Q92915 1-252 isoform Q92915-2): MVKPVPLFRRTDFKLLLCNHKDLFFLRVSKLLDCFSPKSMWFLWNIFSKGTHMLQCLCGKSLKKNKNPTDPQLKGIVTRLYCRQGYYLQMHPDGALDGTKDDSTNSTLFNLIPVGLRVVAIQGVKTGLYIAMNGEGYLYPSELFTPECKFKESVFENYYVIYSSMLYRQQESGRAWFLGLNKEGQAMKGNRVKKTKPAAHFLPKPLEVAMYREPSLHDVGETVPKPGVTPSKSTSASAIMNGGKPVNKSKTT
Sequence (Q9UQD0 1763-1976 limits assumed): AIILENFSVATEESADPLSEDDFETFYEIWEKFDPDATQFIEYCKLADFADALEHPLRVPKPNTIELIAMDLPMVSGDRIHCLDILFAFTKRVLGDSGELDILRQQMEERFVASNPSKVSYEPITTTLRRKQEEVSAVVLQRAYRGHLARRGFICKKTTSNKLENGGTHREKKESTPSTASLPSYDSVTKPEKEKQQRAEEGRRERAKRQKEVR
Experiment: Split-luciferase complementation assay (LCA) in Clone V double stable HEK293 cells
Format: cell-based
Conditions: in-cell IC50, repurchased compounds; 10-point dose response 0.25-50 µM, n = 8 per concentration; Clone V cells, 384-well
readoutType: IC50

C[C@]12O[C@H](C[C@]1(O)CO)n1c3ccccc3c3c4c(c5c6ccccc6n2c5c31)CNC4=O [Lestaurtinib, reference compound]; 950 nM

* * *

Target: FGF14:Nav1.6 C-tail complex (Homo sapiens, UniProt Q92915+Q9UQD0)
Construct: polymerase chain reaction (PCR) amplification of the FGF14 open reading frame (nt 1–855); C-terminal fragment of Nav1.6 (amino acids 1763–1976) fused with CD4ΔC-tail (amino acids 1–395); expressed in transfected cells
Assay: Split-luciferase complementation assay (LCA) in Clone V double stable HEK293 cells
Type: cell-based
Details: CC_NCI screening, biological replicate Set 2; normalized to on-plate 0.3% DMSO controls (n=16 per plate)
Reported Split Luciferase Assay %Lum Set 2 values for the following molecules.
readoutType: Split Luciferase Assay %Lum Set 2 (%)

NC(=O)c1ccc2[nH]ccc2c1; 116.51
Nc1ncn([C@@H]2O[C@H](CO)[C@@H](O)[C@H]2O)c(=O)n1; 102.99
Cc1cc(Nc2cc(N3CCN(C)CC3)nc(Sc3ccc(NC(=O)C4CC4)cc3)n2)[nH]n1; 26.01
Cc1c[nH]c(-c2cnc(NCCNc3ccc(C#N)cn3)nc2-c2ccc(Cl)cc2Cl)n1; 31.21
Cc1nc2c(O)cccc2c(=O)[nH]1; 46.81
C[C@@H](Oc1cc(-c2cnn(C3CCNCC3)c2)cnc1N)c1c(Cl)ccc(F)c1Cl [Crizotinib, reference compound]; 34.33
CCN(CC)CCCC(C)Nc1nc(C)cc(Nc2ccc3nc(C)cc(N)c3c2)n1 (stereo not shown); 99.87

* * *

Target: FGF14:Nav1.6 C-tail complex (Homo sapiens, UniProt Q92915+Q9UQD0)
Construct: polymerase chain reaction (PCR) amplification of the FGF14 open reading frame (nt 1–855); C-terminal fragment of Nav1.6 (amino acids 1763–1976) fused with CD4ΔC-tail (amino acids 1–395); expressed in transfected cells
Assay: Split-luciferase complementation assay (LCA) in Clone V double stable HEK293 cells
Assay type: cell-based
Conditions: CC_NCI screening; LCA luminescence, biological replicate Set 1; normalized to on-plate 0.3% DMSO controls (n=16 per plate)
Where a name gives a salt, the structure may show the parent alone.
readoutType: Split Luciferase Assay % Lum Set 1 (%)

O=P(O)(O)C(O)(Cn1ccnc1)P(=O)(O)O; 100.34
Cc1c(NC(=O)OC[C@@H]2COCCN2)cn2ncnc(Nc3ccc4c(cnn4Cc4cccc(F)c4)c3)c12; 38.37
CC[C@@]1(O)C(=O)OCc2c1cc1n(c2=O)Cc2cc3c(CN(C)C)c(O)ccc3nc2-1 [Topotecan hydrochloride]; 57.94
Cc1cn(-c2cc(NC(=O)c3ccc(C)c(Nc4nccc(-c5cccnc5)n4)c3)cc(C(F)(F)F)c2)cn1 [NILOTINIB]; 109.04
Oc1ncnc2[nH]ncc12; 106.86
CO[C@H]1C[C@@H]2CC[C@@H](C)[C@@](O)(O2)C(=O)C(=O)N2CCCC[C@H]2C(=O)O[C@H]([C@H](C)C[C@@H]2CC[C@@H](OC(=O)C(C)(CO)CO)[C@H](OC)C2)CC(=O)[C@H](C)/C=C(\C)[C@@H](O)[C@@H](OC)C(=O)[C@H](C)C[C@H](C)/C=C/C=C/C=C/1C [Temsirolimus]; 50.33
Cc1ccc(F)c(NC(=O)Nc2ccc(-c3cccc4[nH]nc(N)c34)cc2)c1; 14.46
COc1cc2nccc(Oc3ccc(NC(=O)C4(C(=O)Nc5ccc(F)cc5)CC4)cc3)c2cc1OC [Cabozantinib]; 27.50
NC(=O)c1ccc(I)c([N+](=O)[O-])c1; 102.51
C#CCC(Cc1cnc2nc(N)nc(N)c2n1)c1ccc(C(=O)N[C@@H](CCC(=O)O)C(=O)O)cc1 (stereo partly shown) [Pralatrexate]; 117.73
N.N.[Cl][Pt][Cl] [Cisplatin]; 89.47
CN1CCN(c2ccc3nc(-c4c(N)c5c(F)cccc5[nH]c4=O)[nH]c3c2)CC1; 66.64
Cn1cnc2c(F)c(Nc3ccc(Br)cc3Cl)c(C(=O)NOCCO)cc21; 100.34
CCN(CCO)CCCOc1ccc2c(Nc3cc(CC(=O)Nc4cccc(F)c4)[nH]n3)ncnc2c1; 87.29
Cc1ccc(C(=O)Nc2ccc(CN3CCN(C)CC3)c(C(F)(F)F)c2)cc1C#Cc1cnc2cccnn12; 53.59
COC1=C2C[C@@H](C)C[C@H](OC)[C@H](O)[C@@H](C)/C=C(\C)[C@H](OC(N)=O)[C@@H](OC)/C=C\C=C(/C)C(=O)NC(=CC1=O)C2=O; 70.99
Cc1ccc(NC(=O)c2ccc(CN3CCN(C)CC3)cc2)cc1Nc1nc(-c2cccnc2)cs1; 5.76
C[C@]12O[C@H](C[C@]1(O)CO)n1c3ccccc3c3c4c(c5c6ccccc6n2c5c31)CNC4=O [Lestaurtinib, reference compound]; 50.33
c1cc(CN2CCCNCCNCCCNCC2)ccc1CN1CCCNCCNCCCNCC1; 112.30
CN[C@@H]1C[C@H]2O[C@@](C)([C@@H]1OC)n1c3ccccc3c3c4c(c5c6ccccc6n2c5c31)C(=O)NC4 [Staurosporine, reference compound]; 23.16
CCCCCCCCCCCCSc1nc2c([nH]1)c(=O)n(C)c(=O)n2C; 112.30
COc1cc2ncnc(Nc3cccc(Br)c3)c2cc1OC; 143.82
O=C(c1ccc(OCCN2CCCCC2)cc1)c1c(-c2ccc(O)cc2)sc2cc(O)ccc12; 56.86
COc1ccc2c(c1)CC[C@@H]1[C@@H]2CC[C@]2(C)[C@@H](NCCCCCCN3C(=O)C=CC3=O)CC[C@@H]12; 128.60
Cc1ccc(-c2cc(C(F)(F)F)nn2-c2ccc(S(N)(=O)=O)cc2)cc1; 43.81
C[C@@H](Oc1cc(-c2cnn(C3CCNCC3)c2)cnc1N)c1c(Cl)ccc(F)c1Cl; 59.03
CN(C)C/C=C/C(=O)Nc1cc2c(Nc3ccc(F)c(Cl)c3)ncnc2cc1O[C@H]1CCOC1 [BIBW2992]; 70.99
Nc1nc(Cl)nc2c1ncn2[C@@H]1O[C@H](CO)[C@@H](O)[C@@H]1F; 146.00
COc1cc2c(N3CCN(C(=O)Nc4ccc(OC(C)C)cc4)CC3)ncnc2cc1OCCCN1CCCCC1; 92.73
Cc1cc(Nc2ncc3cc(-c4c(Cl)cccc4Cl)c(=O)n(C)c3n2)ccc1F; 120.99
O=C(c1cc(Cc2n[nH]c(=O)c3ccccc23)ccc1F)N1CCN(C(=O)C2CC2)CC1; 117.73
